assay: Level of DFX in plasma of iron-overloaded rats (HPLC); format: in vivo; conditions: male, Wistar, rat, 3 days after start of drugs in food (30 mg/kg daily oral), (SD), N = 8
measurementLabel: concentration at 3 day
Please don't drop the unit; write it after the number.

Value of measured concentration at 3 day for the entry "O=C(O)c1ccc(-n2nc(-c3ccccc3O)nc2-c2ccccc2O)cc1" : 10700 ng/mL

* * *

experiment: Saturation solubility, shake-flask with HPLC; format: physicochemical; conditions: phosphate buffer, 37 °C, pH 6.8, aqueous buffer, thermodynamic from solid, pH 6.8 phosphate buffer, (±SD) in brackets, n = 3
measurementLabel: solubility at 24 h (µg/mL)
State the answer as a number, implicitly in µg/mL.

Value of measured solubility at 24 h for the entry "O=C(O)c1ccc(-n2nc(-c3ccccc3O)nc2-c2ccccc2O)cc1" : 140

* * *

experiment: Saturation solubility, shake-flask with HPLC; type: physicochemical; settings: acetate buffer, pH 4.5, pH 4.5 acetate buffer, 37°C, (±SD) in brackets, n = 3
measurementLabel: solubility at 24 h (µg/mL)
State the answer as a number, implicitly in µg/mL.

Value of measured solubility at 24 h for the entry "O=C(O)c1ccc(-n2nc(-c3ccccc3O)nc2-c2ccccc2O)cc1" : 19.1

* * *

Test: Saturation solubility, shake-flask with HPLC
Format: physicochemical
Conditions: 0.1 M HCl, pH 1.2, pH 1.2 (0.1 M HCl), 37°C, (±SD) in brackets, n = 3
Method: The molar ratio of association between iron and either of the drugs was determined by completely dissolving 2.7 mg of the metal complex products in 10 mL of a mixture of butanol, DMSO, and DMF (3:5:2). Solutions were then diluted twice in DMSO and five times in mobile phase before being injected into HPLC. […] The mobile phase was delivered isocratically at a flow rate of 1.2 mL/min, and chromatograms monitored at 290 nm. […]
measurementLabel: solubility at 24 h (µg/mL)
State the answer as a number, implicitly in µg/mL.

Value of measured solubility at 24 h for the entry "O=C(O)c1ccc(-n2nc(-c3ccccc3O)nc2-c2ccccc2O)cc1" : 9.9
